Data credit: paper PMC5602130

- Experiment Description: Early clinical trial: sex differences of ginsenoside compound K pharmacokinetics (Supplementary Table 1)
- Test Settings: female, human, in vivo
Experimental Endpoint: AUC(0-t)

CC(C)=CCCC(C)(OC1OC(CO)C(O)C(O)C1O)C1CCC2(C)C1C(O)CC1C3(C)CCC(O)C(C)(C)C3CCC12C (stereo not shown) : 4490 ng·h/mL

---

- Experiment Description: Food-effect two-period crossover trial: plasma pharmacokinetics after a single 200 mg oral dose of Ginsenoside CK Tablets
- Assay type: in vivo, human
- Test Settings: female, human, plasma, po, 200 mg, median (range); single oral 200 mg CK; HF
Experimental Endpoint: Tmax (h)

CC(C)=CCC[C@](C)(O)C1CC[C@]2(C)C1[C@H](O)CC1[C@@]3(C)CC[C@H](O)C(C)(C)C3CC[C@]12C (stereo partly drawn) [20(S)-PPD, 20(S)-protopanaxadiol] : 26

---

- Experiment Description: Early clinical trial: sex differences of ginsenoside compound K pharmacokinetics (Supplementary Table 1)
- Test Settings: male, human, in vivo
Experimental Endpoint: AUC(0-inf) (ng·h/mL)

CC(C)=CCCC(C)(OC1OC(CO)C(O)C(O)C1O)C1CCC2(C)C1C(O)CC1C3(C)CCC(O)C(C)(C)C3CCC12C (stereo not shown) : 3680

---

- Experiment Description: Food-effect two-period crossover trial: plasma pharmacokinetics after a single 200 mg oral dose of Ginsenoside CK Tablets
- Type: in vivo, human
- Test Settings: male, human, plasma, po, 200 mg; single oral 200 mg CK; HF
In this section we review reported AUC(0-t) values for a set of compounds.
Experimental Endpoint: AUC(0-t)

CC(C)=CCCC(C)(OC1OC(CO)C(O)C(O)C1O)C1CCC2(C)C1C(O)CC1C3(C)CCC(O)C(C)(C)C3CCC12C (centres unmarked) : 9630 ng·h/mL
CC(C)=CCC[C@](C)(O)C1CC[C@]2(C)C1[C@H](O)CC1[C@@]3(C)CC[C@H](O)C(C)(C)C3CC[C@]12C (stereo partly drawn) [20(S)-PPD, 20(S)-protopanaxadiol] : 100 ng·h/mL

---

- Experiment Description: Food-effect two-period crossover trial: plasma pharmacokinetics after a single 200 mg oral dose of Ginsenoside CK Tablets
- Format: in vivo, human
- Test Settings: male, human, plasma, po, 200 mg, single oral 200 mg CK; FO
Experimental Endpoint: MRT last (h)

CC(C)=CCCC(C)(OC1OC(CO)C(O)C(O)C1O)C1CCC2(C)C1C(O)CC1C3(C)CCC(O)C(C)(C)C3CCC12C (centres unmarked) [CK] : 11.9
CC(C)=CCC[C@](C)(O)C1CC[C@]2(C)C1[C@H](O)CC1[C@@]3(C)CC[C@H](O)C(C)(C)C3CC[C@]12C (stereo partly drawn) [20(S)-PPD, 20(S)-protopanaxadiol] : 27

---

- Experiment Description: Food-effect two-period crossover trial: plasma pharmacokinetics after a single 200 mg oral dose of Ginsenoside CK Tablets
- Format: in vivo, human
- Test Settings: male, human, plasma, po, 200 mg; single oral 200 mg CK; FO
Experimental Endpoint: AUC(0-inf) (ng·h/mL)

CC(C)=CCCC(C)(OC1OC(CO)C(O)C(O)C1O)C1CCC2(C)C1C(O)CC1C3(C)CCC(O)C(C)(C)C3CCC12C (centres unmarked) : 4860
CC(C)=CCC[C@](C)(O)C1CC[C@]2(C)C1[C@H](O)CC1[C@@]3(C)CC[C@H](O)C(C)(C)C3CC[C@]12C (stereo partly drawn) [20(S)-PPD, 20(S)-protopanaxadiol] : 234
